# testedOn: T1, human CD8A-Fc (in house) (human, UniProt P01732 22-182, limits assumed)
# T1 construct: captured by goat anti-human Fc on the ProteOn chip; also called hCD8A-Fc; recombinant human CD8 alpha; not shown: linker/tag and Fc of human IgG1
# assayExplanation: SPR (ProteOn), captured hCD8A-Fc
Field: koff. Provide a value for each of the binders that follow.

Lookup: Look up and state reported koff for P283FR9P1366_H5 (designed binder, FN3 domain) LPAPKNLVVSRVTEDSARLSWTAPDAAFDSFIYIENKVNGEAIVLTVPGSERSYDLTGLKPGTEYHVTIGGVKGGTESNTLSAIFTT
Found: 0.00318 s⁻¹

Lookup: Look up and state reported koff for P283DR9P1364_E3 (designed binder, FN3 domain) LPAPKNLVVSRVTEDSARLSWTAPDAAFDSFGIAYPELPIGGEAIVLTVPGSERSYDLTGLKPGTEYFVIIRGVKGGTLSPPLSAIFTT
Found: 0.00253 s⁻¹

Lookup: Look up and state reported koff for P283GR7P1367_E5 (designed binder, FN3 domain) LPAPKNLVVSRVTEDSARLSWTAPDAAFDSFEIWYHEYHPRGEAIVLTVPGSERSYDLTGLKPGTEYDVVISGVKGGHWSYPLSAIFTT
Found: 0.00124 s⁻¹

Lookup: Look up and state reported koff for P283DR9P1364_F2 (designed binder, FN3 domain) LPAPKNLVVSRVTEDSARLSWTAPDAAFDSFWIAYPEWPVPGEAIVLTVPGSERSYDLTGLKPGTEYFVIIQGVKGGFGSFPLSAIFTT
Found: 0.000161 s⁻¹

Lookup: Look up and state reported koff for P283FR9P1366_A5 (designed binder, FN3 domain) LPAPKNLVVSRVTEDSARLSWTAPDAAFDSFWIAYPEWPTRGEAIVLTVPGSERSYDLTGLKPGTEYFVVIYGVKGGSPSPPLSAIFTT
Found: 0.000585 s⁻¹

Lookup: Look up and state reported koff for P283GR7P1367_B9 (designed binder, FN3 domain) LPAPKNLVVSRVTEDSARLSWTAPDAAFDSFEIWYHEYHPRGEAIVLTVPSSERSYDLTGLKPGTEYDVVISGVKGGHWSYPLSAIFTT
Found: 0.00116 s⁻¹

Lookup: Look up and state reported koff for P283FR9P1366_D7 (designed binder, FN3 domain) LPAPKNLVVSRVTEDSARLSWTAPDAAFDSFSIAYPELPVKGEAIVLTVPGSERSYDLTGLKPGTEYFVVIWGVKGGTYSGPLSAIFTT
Found: 0.000354 s⁻¹

Lookup: Look up and state reported koff for P283FR9P1366_G8 (designed binder, FN3 domain) LPAPKNLVVSRVTEDSARLSWTAPDAAFDSFDIAYPELPIGGEAIVLTVPGSERSYDLTGLKPGTEYFVVIYGVKGGIHSAPLSAIFTT
Found: 0.00108 s⁻¹

Lookup: Look up and state reported koff for P283FR9P1366_C4 (designed binder, FN3 domain) LPAPKNLVVSRVTEDSARLSWTAPDAAFDSFNIAYPEWPVRGEAIVLTVPGSERSYDLTGLKPGTEYWVIIIGVKGGEDSWPLSAIFTT
Found: 0.000536 s⁻¹

Lookup: Look up and state reported koff for P283FR9P1366_C6 (designed binder, FN3 domain) LPAPKNLVVSRVTEDSARLSWTAPDAAFDSFSIAYPEWPVYGEAIVLTVPGSERSYDLTGLKPGTEYFVVIYGVKGGNYSDPLSAIFTT
Found: 0.00143 s⁻¹

Lookup: Look up and state reported koff for P283DR9P1364_H6 (designed binder, FN3 domain) LPAPKNLVVSRVTEDSARLSWTAPDAAFDSFIIAYPETPVRGEAIVLTVPGSERSYDLTGLKPGTEYFVIIIGVKGGQESFPLSAIFTT
Found: 0.0023 s⁻¹

Lookup: Look up and state reported koff for P283GR7P1367_G8 (designed binder, FN3 domain) LPAPKNLVVSRVTEDSARLSWTAPDAAFDSFYIAYPEYVWGGEATSLGEAIVLTVPGSERSYDLTGLKPGTEYFVVITGVKGGLGSYPLSAIFTT
Found: 0.00385 s⁻¹

Lookup: Look up and state reported koff for P283BR9P1363_F6 (designed binder, FN3 domain) LPAPKNLVVSRVTEDSARLSWPEEAVTATSFDSFLIQYQESEKVGEAIVLTVPGSERSYDLTGLKPGTEYTVSIYGVDVKWEGNRPVASNPLSAIFTT
Found: 8.21e-05 s⁻¹

Lookup: Look up and state reported koff for P283HR7P1368_B12 (designed binder, FN3 domain) LPAPKNLVVSRVTEDSARLSWTAPDAAFDSFGIGYVEFTRAGEAISLSVPGSERSYDLTGLKPGTEYHVVIIGVKGGEPSHPLGAPFTT
Found: 4.53e-05 s⁻¹

Lookup: Look up and state reported koff for P283HR7P1368_D1 (designed binder, FN3 domain) LPAPKNLVVSRVTEDSARLSWTAPDAAFDSFGISYYEWAPNGEAIQLSVPGSERSYDLTGLKPGTEYHVVIIGVKGGEPSHPLGAPFTT
Found: 0.00166 s⁻¹

Lookup: Look up and state reported koff for P283BR9P1363_F4 (designed binder, FN3 domain) LPAPKNLVVSRVTEDSARLSWERIVQTPHFDSFLIQYQESEKVGEAIVLTVPGSERSYDLTGLKPGTEYTVSIYGVDVKWEGNRPVASNPLSAIFTT
Found: 0.000155 s⁻¹

Lookup: Look up and state reported koff for P283ER9P1365_E2 (designed binder, FN3 domain) LPAPKNLVVSRVTEDSARLSWTAPDAAFDSFYIPYRESEFRGEAIALPVPGSERSYDLTGLKPGTKYRVIIIGVKGGEFSQPLAAIFTT
Found: 0.000311 s⁻¹

Lookup: Look up and state reported koff for P283FR9P1366_H10 (designed binder, FN3 domain) LPAPKNLVVSRVTEDSARLSWTAPDAAFDSFNIAYPEWPPEGEAIVLTVPGSERSYDLTGLKPGTEYFVVIYGVKGGHLSDPLSAIFTT
Found: 0.00063 s⁻¹
